Hello, the source for this data is paper PMC8621770, in case you need it.

OBSERVED PROPERTY: melting point

structure_notation=[Br-].c1ccc(-c2ccc(C[n+]3ccc(N4CCCC4)c4sccc43)cc2)cc1 observed_property="melting point" assay_result="271 to 273 °C"
structure_notation=[Br-].[Br-].c1cc2c(s1)c(N1CCCC1)nc[n+]2Cc1ccc(OCCOc2ccc(C[n+]3cnc(N4CCCC4)c4sccc43)cc2)cc1 observed_property="melting point" assay_result="217 to 219 °C"
structure_notation=[Br-].[Br-].c1cc2c(N3CCCCC3)nc[n+](Cc3ccc(CCCCc4ccc(C[n+]5cnc(N6CCCCC6)c6ccsc65)cc4)cc3)c2s1 observed_property="melting point" assay_result="282 to 284 °C"
structure_notation=[Br-].[Br-].c1cc2c(s1)c(N1CCCC1)nc[n+]2Cc1ccc(CCc2ccc(C[n+]3cnc(N4CCCC4)c4sccc43)cc2)cc1 observed_property="melting point" assay_result="231 to 233 °C"
structure_notation=[Br-].c1ccc(-c2ccc(C[n+]3cnc(N4CCCC4)c4ccsc43)cc2)cc1 observed_property="melting point" assay_result="275 to 278 °C"

// Input: "[Br-].[Br-].c1cc2c(N3CCCC3)nc[n+](Cc3ccc(OCCOc4ccc(C[n+]5cnc(N6CCCC6)c6ccsc65)cc4)cc3)c2s1" . Output its melting point only. 193 to 195 °C

// Input: "[Br-].[Br-].c1cc2c(N3CCCCC3)nc[n+](Cc3ccc(CCc4ccc(C[n+]5cnc(N6CCCCC6)c6ccsc65)cc4)cc3)c2s1" . Output its melting point only. 295 to 297 °C
